- conditionSet: in isopentanol, 283.45 K

- givenSmiles: "O=C(O)/C=C/c1ccccc1Cl"
  solubility (mole fraction): 0.00322

====

- conditionSet: in ethanol, 292.85 K

- givenSmiles: "O=C(O)/C=C/c1ccccc1Cl"
  solubility (mole fraction): 0.00508

====

- conditionSet: in n-pentanol, 316.55 K

- givenSmiles: "O=C(O)/C=C/c1ccccc1Cl"
  solubility (mole fraction): 0.0134

====

- conditionSet: in acetone, 288.35 K
metricName: solubility (mole fraction)

- givenSmiles: "O=C(O)/C=C/c1ccccc1Cl"
  metricName: "solubility (mole fraction)"
  obsValue: 0.00668

====

- conditionSet: in ethyl acetate, 278.45 K
metricName: solubility (mole fraction)

- givenSmiles: "O=C(O)/C=C/c1ccccc1Cl"
  metricName: "solubility (mole fraction)"
  obsValue: 0.00294
